# Tested on: Sam68 (KHDRBS1)
# assay.summary: compounds binding KHDRBS1 protein – biochemical, small-molecule microarray, 635 nm fluorescence, primary screen (AID 1125);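 also: score merges 667 nm channel intensity with signal to noise over triplicate slides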
# condition.description: higher = more signal
assay.metric: composite z-score
Form field (numeric): enter value without unit.

In plain terms, CS(=O)(=O)CCOC(=O)C1=CC(CCCO)=CC(c2ccc(CN3CCCC3)cc2)N(Cc2sc3ccccc3c2Cl)C=C1C(=O)OCCS(C)(=O)=O (centres undefined) has a documented composite z-score of 1.3

// "COCCOC(=O)N1C(=O)[C@@]2(c3cc(C#CC4=CCCCC4)ccc31)[C@H](c1ccccc1OCCO)N1[C@H](c3ccccc3)[C@H](c3ccccc3)OC(=O)[C@H]1[C@@H]2C(=O)N1CCN(c2ncccn2)CC1" : composite z-score value = 1.06

Just so you know, measured composite z-score for C[C@@H]1NC(=O)[C@@H](Cc2ccccc2)NC(=O)[C@@]23C(=O)N[C@@H](Cc4ccccc4)C2[C@H](C)[C@@]2(C)O[C@H]2C3/C=C/C/C=C\CNC1=O (some centres undefined) came out at 0.126

Memo: "COc1ccc([Si](C)(C)[C@H]2[C@H](CC(=O)N3CCC[C@H]3CO)O[C@@]3(C(=O)N(Cc4ccc(N5CCOC5=O)cc4)c4ccccc43)[C@@H]2C)cc1" , reported composite z-score: 1.34

What the record says about COc1cc2c(cc1O)C(c1ccc(CN3CCCC3)cc1)N(Cc1cc3c(cc1Br)OCO3)CC2 (centres undefined) : composite z-score is -0.521

"CCOC(=O)C[C@H]1[C@H](OC(=O)c2ccc(C(=O)c3ccccc3)cc2)[C@@H](NC(=O)c2ccc3ccccc3n2)c2cc(OCCCO)ccc2N1C(=O)Cc1ccc(OC)cc1" has a reported composite z-score of 0.627

For record "C=C(/C(=C/C[C@H](OC(C)=O)c1ccc(CO)o1)c1cnc2ccccc2c1)C(C)C" the listed composite z-score is 1.29

Per the record, O=C1C2C=CC(C(O)C3CC=CCC3)N(Nc3ccccc3)C2C(=O)N1c1ccccc1 (centres undefined) has composite z-score of 1.07

Per the record, "COCCOC(=O)N1C(=O)[C@@]2(c3cc(C#CC4(O)CCCCCC4)ccc31)[C@H](c1ccc(O)cc1)N1[C@H](c3ccccc3)[C@H](c3ccccc3)OC(=O)[C@H]1[C@@H]2C(=O)N1CCN(c2ncccn2)CC1" has composite z-score of 1.29

###

# Test system: Wnt5a (protein binding on small-molecule microarray)
# assay.summary: small molecules binding Wnt5a protein – biophysical, small-molecule microarray, 635/667 nm fluorescence, primary screen (AID 1142);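 also: fluorescence read at 667 nm with signal to noise per printed feature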
# condition.description: 635 nm fluorescence, higher = more signal
Provide the recorded composite z-score for the entries that follow.
Please respond with just the number, no unit label.

Given the compound "COc1ccc([Si](C)(C)[C@H]2[C@H](CC(=O)N(CCO)Cc3ccccc3)O[C@@]3(C(=O)N(C)c4c(Br)cc(C)cc43)[C@@H]2C)cc1" and test system Wnt5a (protein binding on small-molecule microarray), the measured composite z-score is 0.306

Summary: "COc1ccc([Si](C)(C)[C@H]2[C@H](CC(=O)N3Cc4ccccc4C[C@H]3CO)O[C@@]3(C(=O)N(Cc4ccc(N5CCOC5=O)cc4)c4ccccc43)[C@@H]2C)cc1" , Wnt5a (protein binding on small-molecule microarray), composite z-score = -0.0993

Observed composite z-score, Wnt5a (protein binding on small-molecule microarray), O=C(C1N=C(c2ccc(OCCCO)cc2)N(c2ccccc2)O1)N1CCCCC1 (stereo not drawn) : 0.296
